# System: DU-145
# Assay procedure: Cytotoxicity against Homo sapiens (human) DU145 cells assessed as inhibition of cell survival after 96 hr by MTT assay
# Assay type: functional, cell-based
# Cond: Homo sapiens, DU-145, 96 h; read-out: IC50
Provide the recorded log10 of IC50 for the entries that follow.
All values: base-10 log of IC50 in µM.

Query the reported log10 of IC50 for DU-145; item: O=C1c2ccccc2C(=O)c2c(Br)ccc(O)c21 1.43

Query the reported log10 of IC50 for DU-145; item: O=C1c2ccccc2C(=O)c2c(O)cc(O)cc21 [XANTHOPURPURIN] 1.46

Query the reported log10 of IC50 for DU-145; item: O=Cc1c(O)cc2c(c1O)C(=O)c1ccccc1C2=O 1.62

Query the reported log10 of IC50 for DU-145; item: CC(=O)Oc1cc2c(c(O)c1C)C(=O)c1ccccc1C2=O 1.57

Query the reported log10 of IC50 for DU-145; item: COc1ccc(OC)c2c1C(=O)c1ccccc1C2=O [1,4-DIMETHOXYANTHRAQUINONE] 1.84

Query the reported log10 of IC50 for DU-145; item: Cc1c(O)c(Br)c2c(c1O)C(=O)c1ccccc1C2=O 1.49

Query the reported log10 of IC50 for DU-145; item: Cc1c(O)cc2c(c1O)C(=O)c1ccccc1C2=O [Rubiadin] 1.51

Query the reported log10 of IC50 for DU-145; item: COc1c(C=O)c(O)c(Br)c2c1C(=O)c1ccccc1C2=O 1.53

Query the reported log10 of IC50 for DU-145; item: COc1c(CBr)c(OC(C)=O)cc2c1C(=O)c1ccccc1C2=O 0.70

Query the reported log10 of IC50 for DU-145; item: COc1cc2c(c(OC)c1CBr)C(=O)c1ccccc1C2=O 0.60

Query the reported log10 of IC50 for DU-145; item: O=C1c2ccccc2C(=O)c2cc(O)ccc21 [2-HYDROXYANTHRAQUINONE] 1.86

* * *

Provide the recorded IC50 for the entries that follow.
# System: MCF7
# Assay procedure: Cytotoxicity against Homo sapiens (human) MCF7 cells assessed as inhibition of cell survival after 96 hr by MTT assay
# Format: functional, cell-based
# Cond: Homo sapiens, MCF7, 96 h; read-out: IC50
Number in µM, nothing else.

Query the reported IC50 for MCF7; item: COc1cc2c(c(OC)c1CBr)C(=O)c1ccccc1C2=O 8

Query the reported IC50 for MCF7; item: CCOCc1c(OC(C)=O)cc2c(c1OC)C(=O)c1ccccc1C2=O 30

Query the reported IC50 for MCF7; item: O=C1c2ccccc2C(=O)c2c(Br)ccc(O)c21 36

Query the reported IC50 for MCF7; item: COc1c(C=O)c(O)c(Br)c2c1C(=O)c1ccccc1C2=O 19

Query the reported IC50 for MCF7; item: COc1ccc2c(c1)C(=O)c1ccccc1C2=O 68

Query the reported IC50 for MCF7; item: COc1ccc(C)c2c1C(=O)c1ccccc1C2=O 55

Query the reported IC50 for MCF7; item: O=C1c2ccccc2C(=O)c2c(Br)cc(O)cc21 27

Query the reported IC50 for MCF7; item: COc1cc2c(c(O)c1CBr)C(=O)c1ccccc1C2=O 34

Query the reported IC50 for MCF7; item: CCOCc1c(O)cc2c(c1OC)C(=O)c1ccccc1C2=O 35

Query the reported IC50 for MCF7; item: CC(=O)Oc1cc2c(c(O)c1C)C(=O)c1ccccc1C2=O 56

Query the reported IC50 for MCF7; item: COc1cc2c(c(OC)c1C(Br)Br)C(=O)c1ccccc1C2=O 27

* * *

# System: DU-145
# Assay procedure: Cytotoxicity against Homo sapiens (human) DU145 cells assessed as inhibition of cell survival after 96 hr by MTT assay
# Format: functional, cell-based
# Cond: Homo sapiens, DU-145, 96 h; read-out: IC50
Value kind: pIC50
# reply with the number alone; pIC50 is -log10 of concentration in mol/L

// pIC50 lookup, key: O=C1c2ccccc2C(=O)c2c(Br)cc(O)cc21 4.36

// pIC50 lookup, key: CCOCc1c(O)cc2c(c1OC)C(=O)c1ccccc1C2=O 4.30

// pIC50 lookup, key: CCOCc1c(OC(C)=O)cc2c(c1OC)C(=O)c1ccccc1C2=O 4.64

// pIC50 lookup, key: COc1ccc2c(c1)C(=O)c1ccccc1C2=O 4.15

// pIC50 lookup, key: COc1c(C=O)c(O)cc2c1C(=O)c1ccccc1C2=O 4.59

// pIC50 lookup, key: COc1c(C)c(OC(C)=O)cc2c1C(=O)c1ccccc1C2=O 4.57

// pIC50 lookup, key: COc1ccc(C)c2c1C(=O)c1ccccc1C2=O 4.32

// pIC50 lookup, key: COc1cc2c(c(O)c1CBr)C(=O)c1ccccc1C2=O 4.59

// pIC50 lookup, key: COc1ccc(O)c2c1C(=O)c1ccccc1C2=O 4.13

// pIC50 lookup, key: COc1cc2c(c(OC)c1C(Br)Br)C(=O)c1ccccc1C2=O 4.55

// pIC50 lookup, key: COc1cc2c(c(OC)c1C=O)C(=O)c1ccccc1C2=O 4.49

* * *

# Tested on: MCF7
# Assay procedure: Cytotoxicity against Homo sapiens (human) MCF7 cells assessed as inhibition of cell survival after 96 hr by MTT assay
# Format: functional, cell-based
# Cond: Homo sapiens, MCF7, 96 h; read-out: IC50
# 1.0 = IC50 below 60 µM (exclusive); 0.0 = IC50 at/above 60 µM

Please let me know if Cc1c(O)c(Br)c2c(c1O)C(=O)c1ccccc1C2=O shows IC50 below 60 µM. 1.0

Please let me know if COc1c(C=O)c(O)cc2c1C(=O)c1ccccc1C2=O shows IC50 below 60 µM. 1.0

Please let me know if COc1c(CBr)c(OC(C)=O)cc2c1C(=O)c1ccccc1C2=O shows IC50 below 60 µM. 1.0

Please let me know if O=C1c2ccccc2C(=O)c2cc(O)ccc21 [2-HYDROXYANTHRAQUINONE] shows IC50 below 60 µM. 0.0

Please let me know if COc1cc2c(c(OC)c1C=O)C(=O)c1ccccc1C2=O shows IC50 below 60 µM. 1.0

Please let me know if Cc1c(O)cc2c(c1O)C(=O)c1ccccc1C2=O shows IC50 below 60 µM. 1.0

Please let me know if O=C1c2ccccc2C(=O)c2c(O)cc(O)cc21 shows IC50 below 60 µM. 1.0

Please let me know if COc1c(C)c(OC(C)=O)cc2c1C(=O)c1ccccc1C2=O shows IC50 below 60 µM. 1.0

Please let me know if COc1ccc(O)c2c1C(=O)c1ccccc1C2=O shows IC50 below 60 µM. 0.0

Please let me know if O=Cc1c(O)cc2c(c1O)C(=O)c1ccccc1C2=O shows IC50 below 60 µM. 1.0

Please let me know if COc1ccc(OC)c2c1C(=O)c1ccccc1C2=O shows IC50 below 60 µM. 0.0

* * *

# Test system: MES-SA
# Assay procedure: Cytotoxicity against Homo sapiens (human) MES-SA cells assessed as inhibition of cell survival after 96 hr by MTT assay
# Assay type: functional, cell-based
# Cond: Homo sapiens, MES-SA, 96 h; read-out: IC50
pIC50: −log10 of the molar value.
pIC50 vs 5: at or above is rule met, below is rule not met.

Is pIC50 for O=C1c2ccccc2C(=O)c2c(Br)cc(O)cc21 at or above 5? rule not met

Is pIC50 for COc1cc2c(c(OC)c1C=O)C(=O)c1ccccc1C2=O at or above 5? rule met

Is pIC50 for O=Cc1c(O)cc2c(c1O)C(=O)c1ccccc1C2=O at or above 5? rule not met

Is pIC50 for O=C1c2ccccc2C(=O)c2c(O)cc(O)cc21 at or above 5? rule not met

Is pIC50 for Cc1c(O)cc2c(c1O)C(=O)c1ccccc1C2=O at or above 5? rule not met

Is pIC50 for COc1cc2c(c(O)c1CBr)C(=O)c1ccccc1C2=O at or above 5? rule met

Is pIC50 for O=C1c2ccccc2C(=O)c2c(Br)ccc(O)c21 at or above 5? rule not met

Is pIC50 for Cc1c(O)c(Br)c2c(c1O)C(=O)c1ccccc1C2=O at or above 5? rule not met

Is pIC50 for COc1cc2c(c(OC)c1CBr)C(=O)c1ccccc1C2=O at or above 5? rule met

Is pIC50 for COc1ccc(C)c2c1C(=O)c1ccccc1C2=O at or above 5? rule not met
